protocolText: Toxicity liver stage against HepG2, at 10uM
Format: cell-based
Parameters: test concentration 10 uM, cell line HepG2-A16-CD81EGFP
reportedConditions: human, HepG2-A16-CD81EGFP cells; read-out: INHIBITION
Parameter cytotoxicity at 10 µM: see the listing below.

{"columns": ["compound", "cytotoxicity at 10 µM, %"],
 "data": [
  ["CCC(NC(=O)c1cc(NC(C)=O)ccc1Cl)c1cc(C)ccn1 (stereo not drawn)", -16.5],
  ["CN(C)S(=O)(=O)N1CC(c2nc(N)ncc2-c2ccc(F)cc2)C1", -4.64],
  ["CCOC(=O)[C@]12CCCN(Cc3ccsc3)C[C@H]1CN(CCOC)C2", -127],
  ["CCCn1nc2c(cc1=O)CN(Cc1nc(CCOC)no1)CC2", -2.7],
  ["CCn1cc(S(=O)(=O)N2CCN(S(=O)(=O)c3ccc(Br)s3)CC2)c(C)n1", 4.64],
  ["CC(NC(=O)c1ccc(F)cc1F)c1cnn(C)c1 (stereo not drawn)", 3.68],
  ["Cc1nn(C)c(N(C)C)c1CNCc1ccc2c(c1)OCO2", -2.51],
  ["CCCn1ncc(C(=O)N2CCC(N3CCCCC3)CC2)c1C", -143],
  ["Cc1cc(CN(C)C(=O)C2CCCN(C(=O)c3ccc(Cl)cc3)C2)no1 (stereo not drawn)", -15.6],
  ["Cc1cnc(C(=O)N2C[C@@H](NS(C)(=O)=O)[C@@H]3OCCC[C@@H]32)cn1", -89.7],
  ["CSc1ccc2cc(CN(C)CCO)c(=O)[nH]c2c1", 5.76],
  ["CC(NC(=O)N(C)Cc1ccsc1)c1ccc2c(c1)CCC(=O)N2 (stereo not drawn)", -7.23],
  ["CCOc1ccccc1C(=O)NCCC(O)c1ccoc1 (stereo not drawn)", -16.4],
  ["c1cnc(N2CCC(OCCN3CCCCC3)C2)nc1 (stereo not drawn)", -47.3],
  ["COC(=O)[C@H]1CN(C(=O)NC(C)C)CCN1C(=O)C1CCCCC1", 1.35],
  ["c1ccc(N2CC[C@@H]3CN(Cc4ccncc4)CCO[C@@H]3C2)cc1", 9.49],
  ["Cc1ccc(-c2noc(C(C)NS(C)(=O)=O)n2)cc1 (stereo not drawn)", -9.24],
  ["CN(CC1(CO)CCC1)C(=O)C1CCC(=O)N(Cc2ccc(Cl)cc2)C1 (stereo not drawn)", -11.2],
  ["CC(=O)N1CCC(c2nc3ccc(-c4ccnn4C)cn3n2)CC1", 6.84],
  ["O=C1N(Cc2cccnc2)C[C@H]2CN(S(=O)(=O)c3ccccc3)CCN12", 1.08],
  ["Cc1ccccc1OCCC(=O)NC(C)c1nnc2n1CCCCC2 (stereo not drawn)", -12.3],
  ["O=C1CC2(CCN(CCO)CC2)CN1Cc1cc(F)cc(F)c1", -15.7],
  ["CCNC(=O)NCc1ccc(-n2ccc(C(F)(F)F)n2)cc1", -4.7]
]}

###

protocolText: Toxicity liver stage against HepG2, at 10uM
Type: cell-based
Parameters: test concentration 10 uM, cell line HepG2-A16-CD81EGFP
reportedConditions: human, HepG2-A16-CD81EGFP cells; read-out: INHIBITION
Parameter cytotoxicity at 10 µM: see the listing below.

{"columns": ["compound", "cytotoxicity at 10 µM"],
 "data": [
  ["COc1cc(-c2nc3c([nH]2)CCCNC3=O)cc(OC)c1OC", "9.62%"],
  ["CC(NC1(CNC(=O)CC2CCCC2)CCOCC1)c1ccccc1 (centres undefined)", "-1.67%"],
  ["Cc1nn(C)c2ncc(S(=O)(=O)N3CCN4CCCC4C3)cc12 (centres undefined)", "2.6%"],
  ["c1ccc2c(c1)COC1(CCCCC1)N2", "-11.1%"],
  ["COCC1CN(Cc2ccccn2)Cc2nn(C)cc21 (centres undefined)", "-87.5%"],
  ["CCn1ncnc1C(C)NC(=O)C1CCN(C(=O)COC)CC1 (centres undefined)", "2.82%"],
  ["O=C(NCc1ccccc1)N1Cc2nc(COCC3CC3)oc2C1", "8.67%"],
  ["CNc1nc(CN2C[C@@H](NC(C)=O)[C@H](c3ccc(C)o3)C2)cs1", "-42.4%"],
  ["COc1ccc(C(C)=O)c(OCC(=O)NC(C)c2ccc(F)cc2)c1 (centres undefined)", "2.68%"],
  ["COc1ccc(C(=O)N(C)Cc2cccc(C#N)c2)c(OC)c1OC", "-17.1%"],
  ["CN(C)Cc1cc(=O)n2c(n1)CN(C(=O)Cc1cccs1)CCC2", "-2.8%"],
  ["Cc1c(-c2ccncc2)n[nH]c1NC(=O)CCOC(C)C", "6.58%"],
  ["COc1ccc(C(C)NCCc2ccc(NC(C)=O)cc2)cc1F (centres undefined)", "6.75%"],
  ["CC(C)Cn1ccc2c(NC(=O)c3n[nH]c4c3CCC4)cccc21", "7.33%"],
  ["Cc1[nH]nc2ncc(C(=O)N3CCN(CC(C)C)CC3)cc12", "-3.88%"],
  ["CCc1nnc2n1CCN(C(=O)CN(C)Cc1ccccc1)C2", "-6.22%"],
  ["Cc1cc(=O)[nH]c(=O)n1COCc1ccccc1", "-12.5%"],
  ["COc1cc(C(C)=O)ccc1SCC(=O)Nc1ccc(C)cn1", "4.43%"],
  ["O=C(C1CCC1)N1CCN(Cc2ccccc2F)[C@H]2CS(=O)(=O)C[C@H]21", "0.15%"],
  ["O=C(c1cnccn1)N1C[C@@H]2CN(Cc3cccnc3)CCO[C@@H]2C1", "2.89%"],
  ["COc1ccc(-c2csc3c2c(N)nc(=O)n3CC(N)=O)cc1", "-42.2%"],
  ["NC(=O)Cc1ccc(NC(=O)C2CCOCC2)cc1", "-1.2%"],
  ["Cc1cc(CC(=O)NC2CCCN(c3ccccc3F)C2=O)n[nH]1 (centres undefined)", "1.46%"],
  ["O=C(C1CC=CC1)N1CC[C@@H](O)[C@H]1Cc1cccnc1", "-99.4%"]
]}

###

protocolText: Toxicity liver stage against HepG2, at 10uM
Format: cell-based
Parameters: test concentration 10 uM, cell line HepG2-A16-CD81EGFP
reportedConditions: human, HepG2-A16-CD81EGFP cells; read-out: INHIBITION
assayMetric: cytotoxicity at 10 µM (%)

{"columns": ["molecule", "assayMetric", "numericReadout"],
 "data": [
  ["Cc1ccc2c(n1)N(CC(C)C)CCN(S(C)(=O)=O)C2", "cytotoxicity at 10 µM", -65.7],
  ["Cc1cc(C(=O)N2CCCCC2c2nc3cc(F)ccc3[nH]2)no1 (centres undefined)", "cytotoxicity at 10 µM", 19.6],
  ["Cc1cccc(CN2C(=O)CC[C@@H]3[C@H]2CCN3CC2CCOCC2)n1", "cytotoxicity at 10 µM", 5.89],
  ["Cn1cnn(CC(=O)NCc2ccccc2F)c1=O", "cytotoxicity at 10 µM", 2.4],
  ["CC1(c2ncc(CN(CC(=O)O)Cc3ccccc3)cn2)CCCCO1 (centres undefined)", "cytotoxicity at 10 µM", -3.73],
  ["COC(C)(C)Cn1ccnc1-c1cccc(C(C)N(C)C)c1 (centres undefined)", "cytotoxicity at 10 µM", -3.59],
  ["Cc1nc(CNC(=O)C(C)(C)c2ccc(F)cc2)no1", "cytotoxicity at 10 µM", 6.08],
  ["Fc1ccc(CN2CCc3ncnc(C4CC4)c3CC2)cc1", "cytotoxicity at 10 µM", -147],
  ["C1CN(c2nc(C3CC3)ns2)CCO1", "cytotoxicity at 10 µM", -2.4],
  ["COc1ccc(NC(=O)N2CCCC(CO)C2)c(C)c1 (centres undefined)", "cytotoxicity at 10 µM", -8.33],
  ["Cc1csc2c(N3CCC(NCCCc4ccncc4)CC3)ncnc12", "cytotoxicity at 10 µM", -1.54],
  ["CCN(C(=O)CN1CCN(CC(C)O)CC1)C1=CCCCC1 (centres undefined)", "cytotoxicity at 10 µM", 8.67],
  ["COc1cc(C(=O)N(Cc2cnn(C)c2)C(C)C)ccc1C", "cytotoxicity at 10 µM", -3.14],
  ["c1cncc(CNc2ccc3nc(C4CCNCC4)nn3c2)c1", "cytotoxicity at 10 µM", -108],
  ["COc1cc(-c2nccn2CCn2cccn2)cc2c1OCO2", "cytotoxicity at 10 µM", -3.81],
  ["c1ccc(CN2CCc3ncnc(N4CCCC4)c3CC2)nc1", "cytotoxicity at 10 µM", -8.35],
  ["COCC1c2c(cnn2C)CCN1Cc1ccsc1 (centres undefined)", "cytotoxicity at 10 µM", -13.3],
  ["O=C(c1ccccc1N1CCOCC1)N1CCCC(n2cccn2)C1 (centres undefined)", "cytotoxicity at 10 µM", -7.32],
  ["NC(=O)C(Nc1ccc(Cl)cc1)c1ccc(F)cc1 (centres undefined)", "cytotoxicity at 10 µM", -0.82],
  ["Cn1ccnc1SCCNC(=O)c1c[nH]nc1C1CCCCC1", "cytotoxicity at 10 µM", -4.68],
  ["CCC(C)Oc1ccc(CNCCNS(C)(=O)=O)cc1Cl (centres undefined)", "cytotoxicity at 10 µM", -6.78],
  ["CC(C)NC(=O)N1CCc2onc(C(=O)NCCN(C)C)c2C1", "cytotoxicity at 10 µM", 0.0529],
  ["CSc1ccc(CNc2ccccc2CN2CCC(O)CC2)cc1", "cytotoxicity at 10 µM", -4.75],
  ["CC(C)N(C)Cc1ncn2c1CN(CC(=O)N(C)C)CCC2", "cytotoxicity at 10 µM", 7.28],
  ["Cc1ccc(-c2cnnc(N3CCCC3c3nonc3C)n2)o1 (centres undefined)", "cytotoxicity at 10 µM", 5.46],
  ["O=C(Cn1nc2ccccc2n1)N1CCCC(O)(CO)C1 (centres undefined)", "cytotoxicity at 10 µM", -6.66],
  ["O=C(c1coc(CN2CCN(c3ccccc3F)CC2)n1)N1CC=CC1", "cytotoxicity at 10 µM", -3.06],
  ["CC(=O)N1CC[C@@]2(O)CCCC[C@H]2[C@@H]1c1ccccc1", "cytotoxicity at 10 µM", 2.41],
  ["CC(C)CN1CC(O)CN(S(=O)(=O)c2ccccc2)CC1=O (centres undefined)", "cytotoxicity at 10 µM", 1.74],
  ["CCN1CCCC(C)(C(=O)NCCc2n[nH]c(=O)[nH]2)C1 (centres undefined)", "cytotoxicity at 10 µM", -1.76],
  ["CSC1=Nc2c(cnn2-c2cccc(Cl)c2)C2=NCCCN12", "cytotoxicity at 10 µM", 4.81],
  ["CCc1nccn1C1CCCN(C(=O)c2cn3cccnc3n2)C1 (centres undefined)", "cytotoxicity at 10 µM", 92.6],
  ["CC(CCN1CCn2nc(CNC(=O)N(C)C)cc2C1)c1ccccc1 (centres undefined)", "cytotoxicity at 10 µM", -11.8],
  ["Cc1nn(C2CCS(=O)(=O)C2)c(O)c1Cc1cccc(Cl)c1 (centres undefined)", "cytotoxicity at 10 µM", -46.9],
  ["Cc1cnccc1CN1C[C@@H](O)[C@H](Oc2ccccc2)C1", "cytotoxicity at 10 µM", 1.85],
  ["NC(=O)c1nnn(-c2ccc(Br)cc2)n1", "cytotoxicity at 10 µM", 6.56],
  ["CC(=O)NCC1CCN(C(=O)c2ccc(Sc3ccccn3)cc2)CC1", "cytotoxicity at 10 µM", 9.15],
  ["Cc1cc(C(=O)NCc2ccccn2)no1", "cytotoxicity at 10 µM", -9.95],
  ["CN1CCc2[nH]nc(C(=O)N3CCCC4(CN(C)C(=O)O4)C3)c2C1 (centres undefined)", "cytotoxicity at 10 µM", -53.6],
  ["CCOCc1ncn2c1CN(S(=O)(=O)c1ccc(OC)cc1)CC2", "cytotoxicity at 10 µM", 0.199],
  ["CC(C(=O)N1CCc2sccc2C1)N1CCCN(C2CC2)CC1 (centres undefined)", "cytotoxicity at 10 µM", 3.86],
  ["Cc1ccc(NCc2cnc3n2CCN(c2ncccn2)CC3)nn1", "cytotoxicity at 10 µM", 7.31],
  ["CC(C)NC(=O)c1ccn(COc2c(Cl)cccc2Cl)n1", "cytotoxicity at 10 µM", 7.44],
  ["CCSCc1ccc(C(=O)N2CCCN(CC)CC2)cc1", "cytotoxicity at 10 µM", -5.95],
  ["O=C(c1ccnnc1)N1C[C@@H](OCC2CCCC2)[C@H]2OCCC[C@H]21", "cytotoxicity at 10 µM", -11.8],
  ["Cc1c[nH]c(CN(C)C(=O)c2ccc(CSc3nnc[nH]3)o2)n1", "cytotoxicity at 10 µM", 1.12],
  ["Cc1ccc(CN2CCc3ncnc(-c4cccnc4)c3CC2)o1", "cytotoxicity at 10 µM", 1.06],
  ["CC(C)Cn1cc(NC(=O)N2CCOC(c3ccccc3)C2)cn1 (centres undefined)", "cytotoxicity at 10 µM", 7.59],
  ["CC(C)CCN(C)C(=O)c1cc(CN2CCC(O)CC2)on1", "cytotoxicity at 10 µM", 1.06]
]}
